# Species on record: Homo sapiens
# Assay Info: Ratio of IC50 for human COX1 to IC50 for human COX2 in human whole blood
# Format: tissue-based
Measured Ratio IC50, listed per entry.

Illustrative cases are given below, each with its answer.
NS(=O)(=O)c1ccc(-c2nc(NCc3cccnc3)cc(C(F)(F)F)n2)cc1    > 1
CS(=O)(=O)c1ccc(-c2nc(O)cc(NCc3cccs3)n2)cc1    > 1260
CCc1c(NCc2ccc(F)cc2)nc(-c2ccc(S(C)(=O)=O)cc2)nc1C(F)(F)F    > 972

Any idea what Ratio IC50 was measured for NS(=O)(=O)c1ccc(-c2nc(NCc3ccccc3)cc(C(F)(F)F)n2)cc1 ?
> 5

###

# Organism: Homo sapiens
# Assay Info: Ratio of IC50 for human COX1 to IC50 for human COX2 in human whole blood
# Format: tissue-based
Measured Ratio IC50, listed per entry.

Illustrative cases are given below, each with its answer.
CCSc1cc(NCc2cccs2)nc(-c2ccc(S(C)(=O)=O)cc2)n1    > 8400
CS(=O)(=O)c1ccc(-c2nc(O)cc(NCc3ccccc3)n2)cc1    > 2030
Cc1c(NCc2ccc(F)cc2)nc(-c2ccc(S(C)(=O)=O)cc2)nc1C(F)(F)F    > 447

Any idea what Ratio IC50 was measured for CS(=O)(=O)c1ccc(-c2nc(NCC3CCCC3)cc(C(F)(F)F)n2)cc1 ?
> 1

Any idea what Ratio IC50 was measured for Cc1c(NCc2cccs2)nc(-c2ccc(S(C)(=O)=O)cc2)nc1C(F)(F)F ?
> 78

Any idea what Ratio IC50 was measured for Cc1ccc(CNc2cc(C(F)(F)F)nc(-c3ccc(S(C)(=O)=O)cc3)n2)s1 ?
> 852

Any idea what Ratio IC50 was measured for CS(=O)(=O)c1ccc(-c2nccc(NCc3cccs3)n2)cc1 ?
> 10900

Any idea what Ratio IC50 was measured for Cc1cccc(CNc2cc(C(F)(F)F)nc(-c3ccc(S(C)(=O)=O)cc3)n2)c1 ?
> 52

Any idea what Ratio IC50 was measured for CS(=O)(=O)c1ccc(-c2nc(NCc3nc4ccccc4[nH]3)cc(C(F)(F)F)n2)cc1 ?
> 1

###

# Species on record: Homo sapiens
# Assay Info: Ratio of IC50 for human COX1 to IC50 for human COX2 in human whole blood
# Type: tissue-based
Measured Ratio IC50, listed per entry.
Lab note: write the figure by itself, no unit.

CS(=O)(=O)c1ccc(-c2nc(NC3CCCC3)cc(C(F)(F)F)n2)cc1    80
CS(=O)(=O)c1ccc(-c2nc(Cl)cc(NCc3ccc(F)cc3)n2)cc1    2970
CS(=O)(=O)c1ccc(-c2nc(NCc3ccc(N)cc3)cc(C(F)(F)F)n2)cc1    473

// next entry
Any idea what Ratio IC50 was measured for CN(Cc1ccccc1)c1cc(C(F)(F)F)nc(-c2ccc(S(C)(=O)=O)cc2)n1 ?
22

###

# Species on record: Homo sapiens
# Assay Info: Ratio of IC50 for human COX1 to IC50 for human COX2 in human whole blood
# Assay type: tissue-based
Measured Ratio IC50, listed per entry.

Illustrative cases are given below, each with its answer.
CS(=O)(=O)c1ccc(-c2nc(NCc3cc(F)cc(F)c3)cc(C(F)(F)F)n2)cc1    > 333
CS(=O)(=O)c1ccc(-c2nc(Cl)cc(NCc3ccccc3)n2)cc1    > 9120
CS(=O)(=O)c1ccc(-c2nc(NCc3csc4ccccc34)cc(C(F)(F)F)n2)cc1    > 1
CS(=O)(=O)c1ccc(-c2nc(Cl)cc(NCc3cccs3)n2)cc1    > 81300

Any idea what Ratio IC50 was measured for COc1ccc(CNc2cc(C(F)(F)F)nc(-c3ccc(S(C)(=O)=O)cc3)n2)cc1 ?
> 367

Any idea what Ratio IC50 was measured for CS(=O)(=O)c1ccc(-c2nc(SCc3ccccc3)cc(C(F)(F)F)n2)cc1 ?
> 189
